# Tested on: Staphylococcus aureus
# Settings: Concentration 32 ug.mL-1; ASSAY_TEST Inhibition of Bacterial Growth; detection method Absorption (OD600); MEDIA CAMHB; plate type 384well; NBS; CORNING #3640; time 18 hr
# Description: Antibacterial activity against Staphylococcus aureus MRSA ATCC 43300 (CO-ADD:GP_020); MIC in CAMBH media, using NBS plates, by OD(600)
Potency and affinity values are given separately.
Measured property: Inhibition (%)
Give the value in % but do not write % after it.

COc1ccc2c(c1)CCC(=Cc1cccnc1Br)C2=O: 11.61
COc1ccc2c(c1)C(=O)C(=Cc1cccnc1Cl)CC2.Cl: 20.04
COc1cccc2c1CCC(=Cc1ccco1)C2=O: 13.6
CC(C)(C)OC(=O)N1CC(=Cc2ccoc2)C(=O)/C(=C/c2ccoc2)C1: 3.94
COc1ccc2c(c1)C(=O)C(=Cc1cccnc1Br)CC2: 5.72
COc1ccc2c(c1)C(=O)C(=Cc1ccccn1)CC2: 11.08

Give a short answer stating reported Inhibition for COc1ccc2c(c1)CCC(=Cc1ccco1)C2=O .
19.21

Give a short answer stating reported Inhibition for COc1ccc2c(c1)CCC(=Cc1cccnc1)C2=O .
11.8

---

# Test system: Escherichia coli
# Settings: Concentration 32 ug.mL-1; ASSAY_TEST Inhibition of Bacterial Growth; detection method Absorption (OD600); MEDIA CAMHB; plate type 384well; NBS; CORNING #3640; time 18 hr
# Description: Antibacterial activity against Escherichia coli ATCC 25922 (CO-ADD:GN_001); MIC in CAMBH media using NBS plates, by OD(600)
Measured potencies and affinities stand elsewhere.
Property: Inhibition; scope: individual compounds

Example compounds with recorded Inhibition:
COc1cccc2c1CCC(=Cc1ccoc1)C2=O: -0.51%
COc1ccc2c(c1)CCC(=Cc1cnccc1OC)C2=O: -6.17%
COc1ccc2c(c1)C(=O)C(=Cc1cccnc1Cl)CC2.Cl: 2.21%
COc1ccc2c(c1)CCC(=Cc1cccnc1Br)C2=O: -5.29%
COc1ccc2c(c1)CCC(=Cc1ccc(OC)nc1)C2=O: 1.52%
COc1ccc(/C=C/C(=O)c2ccc(OCc3ccc(Br)cc3)cc2)cc1OC: -9.61%
COc1cc2c(cc1OC)C(=O)C(=Cc1ccoc1)CC2: 2.08%
COc1ccc2c(c1)C(=O)C(=Cc1cccnc1OC)CC2: 4.57%

Give a short answer stating reported Inhibition for Cc1ccc(C=C2CN(C(=O)OC(C)(C)C)C/C(=C\c3ccc(C)cc3C)C2=O)c(C)c1 .
-6.82%

---

# Tested on: Staphylococcus aureus
# Settings: Concentration 32 ug.mL-1; ASSAY_TEST Inhibition of Bacterial Growth; detection method Absorption (OD600); MEDIA CAMHB; plate type 384well; NBS; CORNING #3640; time 18 hr
Measured potencies and affinities stand elsewhere.
Measured property: Inhibition (%)
Give the value in % but do not write % after it.

COc1cccc2c1CCC(=Cc1ccoc1)C2=O: 21.03
COc1ccc2c(c1)CCC(=Cc1ccncc1)C2=O: 16.04
COc1ccc2c(c1)CCC(=Cc1ccc(OC)nc1)C2=O: -4.04
COc1ccc2c(c1)CCC(=Cc1cncc(Br)c1)C2=O: 0.4

Give a short answer stating reported Inhibition for COc1ccc2c(c1)C(=O)C(=Cc1cccnc1)CC2 .
17.94

---

# Test system: Staphylococcus aureus
# Settings: Concentration 32 ug.mL-1; ASSAY_TEST Inhibition of Bacterial Growth; detection method Absorption (OD600); MEDIA CAMHB; plate type 384well; NBS; CORNING #3640; time 18 hr
Potency and affinity values are given separately.
Property: Inhibition; scope: individual compounds
Give the value in % but do not write % after it.

COc1ccc2c(c1)C(=O)C(=Cc1ccoc1)CC2: 24.21
COc1cc2c(cc1OC)C(=O)C(=Cc1ccco1)CC2: 23.29

Give a short answer stating reported Inhibition for COc1ccc(/C=C/C(=O)c2ccc(OCc3ccc(Br)cc3)cc2)cc1OC .
-11.78

Give a short answer stating reported Inhibition for COc1cccc2c1CCC(=Cc1cccc(C=C3CCc4c(OC)cccc4C3=O)c1)C2=O .
-26.12

---

# Tested on: Escherichia coli
# Settings: Concentration 32 ug.mL-1; ASSAY_TEST Inhibition of Bacterial Growth; detection method Absorption (OD600); MEDIA CAMHB; plate type 384well; NBS; CORNING #3640; time 18 hr
Measured potencies and affinities stand elsewhere.
Property: Inhibition; scope: individual molecules
Give the value in % but do not write % after it.

Example molecules with recorded Inhibition:
CC(C)(C)OC(=O)N1CC(=Cc2ccoc2)C(=O)/C(=C/c2ccoc2)C1: -5.28
COc1ccc2c(c1)C(=O)C(=Cc1cccnc1)CC2: 4.25
COc1ccc2c(c1)C(=O)C(=Cc1cccnc1Cl)CC2: -2.48
COc1ccc2c(c1)C(O)C(=Cc1cccnc1Cl)CC2 (stereo not given): 4.12

Now let's try a different one.
Give a short answer stating reported Inhibition for COc1cccc2c1CCC(=Cc1cccc(C=C3CCc4c(OC)cccc4C3=O)c1)C2=O .
-22.27
